Taken from patent US11542251B2.

Here's a batch of compounds along with measured IC50 for IRAK4 (Homo sapiens (Human)).
# value in µM; strip the unit string

Field IC50 (IRAK4 (Homo sapiens (Human))), entry O=C1CCC(N2C(=O)c3cccc(NCCOCCOCCC(=O)N4CCC(c5cc(NC(=O)c6cccc(-c7ccn[nH]7)n6)n(-c6ccccn6)n5)CC4)c3C2=O)C(=O)N1 (stereo not shown) [Compound 2] : 0.044

Field IC50 (IRAK4 (Homo sapiens (Human))), entry CC(C)N1CCC(c2cc(NC(=O)c3cccc(-c4ccn[nH]4)n3)n(-c3ccccn3)n2)CC1 [TL1, reference compound] : 0.003

Field IC50 (IRAK4 (Homo sapiens (Human))), entry O=C1CCC(N2C(=O)c3cccc(NCCOCCOCCOCCOCCC(=O)N4CCC(c5cc(NC(=O)c6cccc(-c7ccn[nH]7)n6)n(-c6ccccn6)n5)CC4)c3C2=O)C(=O)N1 (stereo not shown) [Compound 1] : 0.016
